Taken from PubChem BioAssay AID1996.

Hi there, I'd appreciate the recorded solubility kinetic for every entry that follows.
TEST PARAMETERS: buffer; pH 7.4; 200.0 µM
Numbers only, in µg/mL.

// known answers, use as guide
COc1ccc(NC(=S)N2CCN(Cc3ccc(C)cc3)CC2)cc1 : 0.4
Nc1ccc(-c2nc3ncccc3o2)c(O)c1 : 3.1
CCCc1ccc2oc(C(=O)N3CCC[C@H]3CO)c(C)c2c1 : 41.8
Cc1ccc(C)c(OCC(=O)Nc2ccccc2N2CCCC2)c1 : 1.3
COc1cccc(NS(=O)(=O)c2ccc3c(c2)CCN3C(C)=O)c1 : 3.3

For the next question, use this compound.
Answer with the recorded solubility kinetic for the compound listed here: CCN(CC)CCCNC(=O)c1cc(-c2ccc3c(c2)OCO3)on1
49.4
